- study-target: HIV-1 protease (wild-type, WT) (Human immunodeficiency virus type 1 group M subtype B, UniProt P04585)
- Construct: purified HIV-1 protease (wild-type, WT)
- measurement-notes: Inhibition of purified wild-type HIV-1 protease (fluorogenic substrate cleavage), Ki and % inhibition
- Type: biochemical
- experimental-conditions: Table IV; read-out: Ki
Recorded measurements of pKi, one per entry
Scale explanation: pKi corresponds to minus log10 of a concentration expressed in moles per litre.

Worked examples follow.
Give reported pKi value for Cc1cccc(C(=O)N[C@@H](Cc2ccccc2)[C@H](O)[C@H](O)[C@H](Cc2ccccc2)NC(=O)c2cccc(C)c2NC(=O)OCc2ccccc2)c1NC(=O)OCc1ccccc1 [Compound 31]
7.92

Give reported pKi value for CC(=O)Nc1ccccc1C(=O)N[C@@H](Cc1ccccc1)[C@H](O)[C@H](O)[C@H](Cc1ccccc1)NC(=O)c1ccccc1NC(C)=O [Compound 26]
7.39

Give reported pKi value for O=C(Nc1c(O)cccc1C(=O)N[C@@H](Cc1ccccc1)[C@H](O)[C@H](O)[C@H](Cc1ccccc1)NC(=O)c1cccc(O)c1NC(=O)OCc1ccccc1)OCc1ccccc1 [Compound 33]
7.70

Give reported pKi value for O=C(Nc1ccccc1C(=O)N[C@@H](Cc1ccccc1)[C@H](O)[C@H](O)[C@H](Cc1ccccc1)NC(=O)c1ccccc1NC(=O)OCc1ccccn1)OCc1ccccn1 [Compound 34]
10.22

Give reported pKi value for O=C(Nc1c(Cl)cccc1C(=O)N[C@@H](Cc1ccccc1)[C@H](O)[C@H](O)[C@H](Cc1ccccc1)NC(=O)c1cccc(Cl)c1NC(=O)OCc1ccccc1)OCc1ccccc1 [Compound 32]
7.04

Give reported pKi value for O=C(Nc1ccccc1C(=O)N[C@@H](Cc1ccccc1)C[C@H](O)[C@H](Cc1ccccc1)NC(=O)c1ccccc1NC(=O)OCc1ccccc1)OCc1ccccc1 [Compound 35]
8.92

Give reported pKi value for O=C(Nc1ncccc1C(=O)N[C@@H](Cc1ccccc1)[C@H](O)[C@H](O)[C@H](Cc1ccccc1)NC(=O)c1cccnc1NC(=O)OCc1ccccc1)OCc1ccccc1 [Compound 30]
8.52

Give reported pKi value for O=C(CO)Nc1ccccc1C(=O)N[C@@H](Cc1ccccc1)[C@H](O)[C@H](O)[C@H](Cc1ccccc1)NC(=O)c1ccccc1NC(=O)CO [Compound 29]
7.39

Would you kindly look at the next entry?
Give reported pKi value for O=C(Nc1ccccc1C(=O)N[C@@H](Cc1ccccc1)[C@H](O)[C@H](O)[C@H](Cc1ccccc1)NC(=O)c1ccccc1NC(=O)OCc1ccccc1)OCc1ccccc1 [Compound 27]
8.62
